Reference for the values: patent US10005735B2

Would you kindly list pIC50 for each of these compounds?
Tested on: Ub^G76V-GFP
method_description: Reporter degradation assay in Hela cells expressing Ub^G76V-GFP
Type: cell-based
condition_notes: Homo sapiens, after MG132 removal, cycloheximide chase
Description: Characterization of the Compound Activity in Cells. […] After 4 hours, MG132 was removed and a cycloheximide (CHX) chase was initiated +/− different concentrations of test compound and the rate of reporter degradation was evaluated by monitoring GFP fluorescence by high throughput microscopy. The rate of fluorescence decrease was normalized to DMSO control and analyzed using does-response equation.
pIC50: −log10 of the molar value.

// output pIC50; input O=C(NCCc1ccco1)c1cnc2c(SSc3cccc4cc(C(=O)NCCc5ccco5)cnc34)cccc2c1 [Compound 10] ; system Ub^G76V-GFP 5.85

Write pIC50 of COc1ccc(CNC(=O)c2cnc3c(SSc4cccc5cc(C(=O)NCc6ccc(OC)cc6)cnc45)cccc3c2)cc1 [Compound 19] ; system used: Ub^G76V-GFP < 5.00

GET pIC50 where system = Ub^G76V-GFP and item = O=C(CCCC[C@@H]1SC[C@@H]2NC(=O)N[C@@H]21)NCCOCCOCCOCCNC(=O)c1cnc2c(S)cccc2c1 [Compound 32] 5.39

State pIC50 on Ub^G76V-GFP. Entry: O=C(NCCc1ccco1)c1ccnc2c(SSc3cccc4c(C(=O)NCCc5ccco5)ccnc34)cccc12 [Compound 26] 5.80

Enter recorded pIC50 with Ub^G76V-GFP for NC(=O)c1cnc2c(SSc3cccc4cc(C(N)=O)cnc34)cccc2c1 [Compound 1] here. 5.92

Report pIC50 on Ub^G76V-GFP for this entry: O=C(NCc1ccc(F)cc1)c1cnc2c(SSc3cccc4cc(C(=O)NCc5ccc(F)cc5)cnc34)cccc2c1 [Compound 17] < 5.00

Determine reported pIC50 for O=C(NCCN1CCOCC1)c1cnc2c(SSc3cccc4cc(C(=O)NCCN5CCOCC5)cnc34)cccc2c1 [Compound 22] ; test system: Ub^G76V-GFP. < 5.00

// output pIC50; input O=C(NCc1ccc2c(c1)OCO2)c1cnc2c(SSc3cccc4cc(C(=O)NCc5ccc6c(c5)OCO6)cnc34)cccc2c1 [Compound 20] ; system Ub^G76V-GFP < 5.00

Recall the reported pIC50 of O=C(NCc1cccnc1)c1cnc2c(SSc3cccc4cc(C(=O)NCc5cccnc5)cnc34)cccc2c1 [Compound 14] when tested on Ub^G76V-GFP. < 5.00

Enter recorded pIC50 with Ub^G76V-GFP for O=C(NCc1ccccc1)c1cnc2c(SSc3cccc4cc(C(=O)NCc5ccccc5)cnc34)cccc2c1 [Compound 16] here. < 5.00

Provide pIC50, tested on Ub^G76V-GFP, for O=C(NCc1ccc(N2CCOCC2)cc1)c1cnc2c(SSc3cccc4cc(C(=O)NCc5ccc(N6CCOCC6)cc5)cnc34)cccc2c1 [Compound 21] . < 5.00

Fill in pIC50 for O=C(NCCc1nccs1)c1cnc2c(SSc3cccc4cc(C(=O)NCCc5nccs5)cnc34)cccc2c1 [Compound 12] tested with Ub^G76V-GFP. 6.24

Supply pIC50 measured with Ub^G76V-GFP for O=C(NCc1ccccn1)c1cnc2c(SSc3cccc4cc(C(=O)NCc5ccccn5)cnc34)cccc2c1 [Compound 13] . < 5.00

----------
test_system: Csn5 (Homo sapiens (Human))
method_description: Csn5 activity assay (fluorescence polarization, SCF^skp2-Nedd8OG, COP9 Signalosome Complex)
condition_notes: Table 2
reported_property: pIC50
The read-out pIC50 is expressed as -log10 of concentration in moles per litre.

Report pIC50 for O=C(NCCc1nccs1)c1cnc2c(SSc3cccc4cc(C(=O)NCCc5nccs5)cnc34)cccc2c1 4.52

Please supply the value of reported pIC50 for the item O=C(NCc1nccs1)c1cnc2c(SSc3cccc4cc(C(=O)NCc5nccs5)cnc34)cccc2c1 4.64

Give the measured pIC50 for O=C(NCc1cccs1)c1cnc2c(SSc3cccc4cc(C(=O)NCc5cccs5)cnc34)cccc2c1 4.80
